We begin with Ki values for 5-hydroxytryptamine receptor 1A (Rattus norvegicus, UniProt P19327), as collected from the published literature.
Measurement Label: Ki (µM)

INSERT INTO measurements (given_smiles, measurement_label, unit_of_measure, assay_result) VALUES
  ('CC(C)c1ccccc1-n1cc(CN2CCN(c3ccccc3)CC2)c2ccccc21', 'Ki', 'µM', 0.118),
  ('O=C1CC(=C(c2ccccc2)c2ccccc2)C(=O)N1CN1CCN(c2ccccc2)CC1', 'Ki', 'µM', 0.098),
  ('O=C(NCCCCN1CCN(c2cccc(Cl)c2)CC1)[C@@H]1CCC(=O)N1C(=O)C1CCCCC1', 'Ki', 'µM', 0.111),
  ('O=c1ccc(OCCCN2CCC(c3noc4cc(F)ccc34)CC2)nn1-c1cc(Cl)cc(Cl)c1', 'Ki', 'µM', 0.129);

====

Reported pKi against 5-hydroxytryptamine receptor 1A (Rattus norvegicus, UniProt P19327), gathered from multiple publications, appears below.
- Target: 5-hydroxytryptamine receptor 1A (Rattus norvegicus, UniProt P19327)
- Sequence (P19327 whole entry): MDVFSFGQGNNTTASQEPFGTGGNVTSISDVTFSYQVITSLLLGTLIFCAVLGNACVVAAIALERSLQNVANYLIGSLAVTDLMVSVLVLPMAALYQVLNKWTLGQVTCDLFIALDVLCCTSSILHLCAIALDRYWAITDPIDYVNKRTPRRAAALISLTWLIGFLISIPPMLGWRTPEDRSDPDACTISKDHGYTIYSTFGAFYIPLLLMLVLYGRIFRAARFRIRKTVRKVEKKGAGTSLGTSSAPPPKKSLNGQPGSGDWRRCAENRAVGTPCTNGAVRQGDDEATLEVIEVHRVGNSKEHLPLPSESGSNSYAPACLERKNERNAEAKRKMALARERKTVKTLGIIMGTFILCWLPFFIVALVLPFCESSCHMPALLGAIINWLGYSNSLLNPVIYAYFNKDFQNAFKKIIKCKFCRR
pKi: −log10 of the molar value.
Measurement Label: pKi

Some solved cases for reference:
INSERT INTO measurements (compound, assay_result) VALUES
  ('COc1ccc(OC)c(N2CCN(CCCCN3C(=O)c4ccccc4C3=O)CC2)c1', 7.66),
  ('CC(C)Oc1ccccc1N1CCN(CCc2ccc(C(=O)C(=O)N3CCCCCC3)n2C)CC1.O=C(O)CCC(=O)O', 7.92),
  ('O=C(CCCCCN1CCN(c2noc3ccccc23)CC1)c1ccccc1O', 6.72),
  ('O=c1ccc(OCCCCCN2CCC(c3noc4cc(F)ccc34)CC2)nn1-c1ccc(Cl)c(Cl)c1', 6.49),
  ('CCOc1ccccc1N1CCN(CCCCCCCn2ncc(Cl)c(N3CCN(CC4COc5ccccc5O4)CC3)c2=O)CC1 (stereo not drawn)', 8.99);

A: CC(C)Oc1ccccc1N1CCN(Cc2cc(C(=O)N3CCCCCC3)cs2)CC1.Cl
B: O=c1ccc(OCCCN2CCN(c3ccccc3F)CC2)nn1-c1ccc(Cl)c(Cl)c1
Compare reported pKi values for A and B . Which is lower? Let me know the label of the one you choose.
B

====

Assembled from different publications: pKi for 5-hydroxytryptamine receptor 1A (Rattus norvegicus, UniProt P19327).
pKi: −log10 of the molar value.

Solved cases below.
INSERT INTO measurements (molecule, measurement_label, assay_result) VALUES
  ('O=c1ccc(OCCCN2CCC(c3nc4ccccc4s3)CC2)nn1-c1ccc(Cl)c(Cl)c1', 'pKi', '< 5.00'),
  ('CN1CCc2cc(NCc3ccccc3)c(O)cc2C(c2ccccc2)C1 (racemic)', 'pKi', '< 6.00');

Then there is this molecule:
Reported pKi, molecule O=C(C1CC1)N1CCC(CN2CCC(c3noc4cc(F)ccc34)CC2)CC1 : ____
< 5.00
